assay: qHTS for Inhibitors of TGF-b: Cytotox Counterscreen; settings: HepG2 CAGA-GFP viability, ATP luminescence, 18 h; series mostly up to 46.1 µM
The whole screen tested about 410,000 compounds, of which about 3,100 (0.76%) were called active. Calls follow the shape of the dose curve; as a rule, active = well fitted cell-killing curve with a large enough effect; inactive = no such curve, though single readings can be large or run the other way. Shown is part of a subset that was picked to be rich in actives.
Pick one: active, inactive

# molecule, classLabel
rows = [
    ("Oc1cccc2cc(-c3ccncc3)cnc12", "active"),
    ("COc1ccc(Cl)cc1NC(=O)CN(C)Cc1ccc(OC)c(OC)c1", "inactive"),
    ("CCOc1ccccc1CNC(=O)c1ccc2c(c1)nc1n2CCC(C)C1 (configuration not stated)", "inactive"),
    ("Cc1cccc(CS(=O)(=O)c2ncc(Cl)c(C(=O)Nc3ccc(F)cc3)n2)c1", "active"),
    ("CCN(CCCCOC(=O)c1ccc(OC)c(OC)c1)C(C)Cc1ccc(OC)cc1 (configuration not stated)", "inactive"),
]

## Input What did the test return for Nc1c(C(=O)O)cnn1-c1ccccc1 ?
## Output active

## Input What did the test return for Cc1ccc(Cn2cnc3c(cnn3C(C)(C)C)c2=O)c(F)c1 ?
## Output inactive

## Input What did the test return for Oc1ccccc1C1=NN(c2ccccc2)C(c2ccccc2)C1 (configuration not stated) ?
## Output active

## Input What did the test return for CCCCC(CCCC)c1ccc(C=Nc2ccc(/C=C/c3ccnc4ccccc34)cc2)cc1 ?
## Output inactive

## Input What did the test return for CSc1ncc(Cl)c(C(=O)Nc2ccc(S(=O)(=O)N3CCCC(C)C3)cc2)n1 (configuration not stated) ?
## Output inactive
